FYI, the data here is from paper PMC12524796.

biological target: UniProt P0DTD1; experiment: biochemical; type: biochemical; settings: read-out: SARS-CoV-2 3CL^pro Inhibition 100 µM (%)
A collection of compounds and their measured inhibition at 100 µM

Compound	System Name	inhibition at 100 µM [%]
O=C(Oc1cc(O)c2c(c1)O[C@H](c1ccccc1)CC2=O)c1ccccc1 [Compound 32, 7-O-benzoylpinocembrin]	UniProt P0DTD1	70.8
C=CC(=O)Oc1c(C)c(OC)c(C(=O)/C=C/c2ccccc2)c(OC(=O)C=C)c1C [Compound 18, 2′,4′-O-diacryloyl-DMC]	UniProt P0DTD1	68
C=CC(=O)Oc1cc(O)c2c(c1)O[C@H](c1ccccc1)CC2=O [Compound 13, 7-O-acryloylpinocembrin]	UniProt P0DTD1	79.2
COc1c(C)c(OC(=O)c2cc(OC(C)=O)c(OC(C)=O)c(OC(C)=O)c2)c(C)c(O)c1C(=O)/C=C/c1ccccc1 [Compound 39, 4′-O-(tri-O-acetylgalloyl)-DMC]	UniProt P0DTD1	72
CC(=O)Oc1ccccc1C(=O)Oc1cc(O)c2c(c1)O[C@H](c1ccccc1)CC2=O [Compound 33, 7-O-(O-acetylsalicyloyl)pinocembrin]	UniProt P0DTD1	81.7
COc1cc(OC(=O)c2cc(OC(C)=O)c(OC(C)=O)c(OC(C)=O)c2)c2c(c1)O[C@H](c1ccccc1)CC2=O [Compound 30, 5-O-(tri-O-acetylgalloyl)pinostrobin]	UniProt P0DTD1	67.1
O=C(O)c1cc(O)c(O)c(O)c1 [gallic acid, reference compound]	UniProt P0DTD1	1.72
COc1c([N+](=O)[O-])c(O)c2c(c1[N+](=O)[O-])O[C@H](c1ccccc1)CC2=O [Compound 24, 6,8-dinitropinostrobin]	UniProt P0DTD1	40

----------
molecular target: SARS-CoV-2 3CL^pro (Severe acute respiratory syndrome coronavirus 2); experiment: biochemical; format: biochemical; conditions: 100 µM compound; FRET assay; read-out: SARS-CoV-2 3CL^pro Inhibition 100 µM (%)
A collection of compounds and their measured inhibition at 100 µM
Assay Readout: inhibition at 100 µM

In [3]: df
Out[3]:
                                        smi  result
0  O=C(Oc1cc(O)c2c(=O)cc(-c3ccccc3)oc2c1)c1cc(O)c(O)c(O)c1   > 99%
1  COc1c(C)c(OC(=O)c2cc(O)c(O)c(O)c2)c(C)c(O)c1C(=O)/C=C/c1ccccc1   > 99%
2  COc1cc(OC(=O)c2cc(O)c(O)c(O)c2)c2c(=O)cc(-c3ccccc3)oc2c1   > 99%
